- ASSAY_SYSTEM: AGTR1 (Homo sapiens)
- Construct: host or cells: Pathunter CHO-K1 AGTR1 β-arrestin cell line (CHO-K1)
- EXPERIMENTAL_DETAILS: DiscoveRx β-arrestin2 recruitment assay (enzyme complementation, Pathunter CHO-K1 AGTR1 β-arrestin cell line)
- Assay type: cell-based
- SETTINGS: DiscoveRx β-arrestin2 recruitment
OBSERVATION_TYPE: EC50 (nM)
Numbers only, in nM.

Ask: Look up EC50 of CCc1nc2c(C)cc(C)nc2n1Cc1ccc(-c2cc(-c3ccc(C(=O)N(C)C)cc3)ccc2-c2nn[nH]n2)cc1 and report it.
Reply: 9.9

Take each entry in turn and give its EC50.
1. CCCCC1=NC2(CCCC2)C(=O)N1Cc1ccc(-c2cc(-c3ccsc3)ccc2-c2nn[nH]n2)cc1
2. CCc1nc2c(C)cc(C)nc2n1Cc1ccc(-c2cc(-c3cccc(C)c3)ccc2C(=O)O)cc1

Reply:
21.9
84.9

----------
- ASSAY_SYSTEM: AGTR1 (Homo sapiens)
- Construct: host or cells: Pathunter CHO-K1 AGTR1 β-arrestin cell line (CHO-K1)
- Sequence (P30556 1-359): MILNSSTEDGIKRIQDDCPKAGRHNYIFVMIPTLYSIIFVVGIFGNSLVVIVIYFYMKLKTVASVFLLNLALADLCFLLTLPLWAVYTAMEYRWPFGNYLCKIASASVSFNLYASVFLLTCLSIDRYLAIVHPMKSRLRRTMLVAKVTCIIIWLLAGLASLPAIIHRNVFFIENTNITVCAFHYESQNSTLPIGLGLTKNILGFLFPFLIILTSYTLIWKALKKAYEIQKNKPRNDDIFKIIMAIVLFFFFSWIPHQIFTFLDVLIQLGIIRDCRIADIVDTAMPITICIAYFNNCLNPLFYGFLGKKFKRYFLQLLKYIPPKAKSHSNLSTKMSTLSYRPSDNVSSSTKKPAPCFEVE
- EXPERIMENTAL_DETAILS: DiscoveRx IP1 accumulation assay (HTRF), agonist mode, Pathunter CHO-K1 AGTR1 β-arrestin cell line
- Type: cell-based
- SETTINGS: read-out: IP-1 EC50
OBSERVATION_TYPE: EC50

# annotated cases, reported EC50 shown
Ask: Look up EC50 of CCc1nc2c(C)cc(C)nc2n1Cc1ccc(-c2cc(N3CCCCCC3)ccc2-c2nn[nH]n2)cc1 and report it.
Reply: 249 nM

Ask: Look up EC50 of CCCCC1=NC2(CCCC2)C(=O)N1Cc1ccc(-c2cc(-c3ccccn3)ccc2-c2nn[nH]n2)cc1 and report it.
Reply: 26.1 nM

Ask: Look up EC50 of CCc1nc2c(C)cc(C)nc2n1Cc1ccc(-c2cc(Oc3cc(C)ccn3)ccc2-c2nn[nH]n2)cc1 and report it.
Reply: 50.5 nM

Take each entry in turn and give its EC50.
1. CCc1nc2c(C)cc(C)nc2n1Cc1ccc(-c2cc(C3CCCCN3)ccc2-c2nn[nH]n2)cc1 (single isomer, unassigned) [Example 75]
2. CCc1nc2c(C)cc(C)nc2n1Cc1cnc(-c2cc(-c3cccc(C)c3)ccc2C(=O)O)nc1
3. CCCCC1=NC2(CCCC2)C(=O)N1Cc1ccc(-c2cc(-c3cccs3)ccc2-c2nn[nH]n2)cc1

Reply:
1. > 100000 nM
2. 2940 nM
3. > 100000 nM

----------
- ASSAY_SYSTEM: AGTR1 (Homo sapiens)
- Construct: host or cells: Pathunter CHO-K1 AGTR1 β-arrestin cell line (CHO-K1)
- Sequence (P30556 1-359): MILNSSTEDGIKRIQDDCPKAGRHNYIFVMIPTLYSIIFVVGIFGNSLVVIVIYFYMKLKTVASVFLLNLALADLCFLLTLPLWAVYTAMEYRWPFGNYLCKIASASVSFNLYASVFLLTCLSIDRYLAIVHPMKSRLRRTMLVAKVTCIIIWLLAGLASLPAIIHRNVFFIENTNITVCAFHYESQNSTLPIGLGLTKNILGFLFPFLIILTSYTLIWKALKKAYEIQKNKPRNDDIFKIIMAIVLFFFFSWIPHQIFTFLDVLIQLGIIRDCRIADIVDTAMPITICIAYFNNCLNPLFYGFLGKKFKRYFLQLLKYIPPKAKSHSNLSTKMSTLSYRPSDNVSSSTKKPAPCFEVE
- EXPERIMENTAL_DETAILS: DiscoveRx β-arrestin2 recruitment assay (enzyme complementation, Pathunter CHO-K1 AGTR1 β-arrestin cell line)
- Format: cell-based
- SETTINGS: DiscoveRx β-arrestin2 recruitment, maximal response
Answer each item with its documented DiscoveRx β-arrestin2 Ymax (%).
Field: value (include unit after the number)

# annotated cases, reported DiscoveRx β-arrestin2 Ymax (%) shown
Ask: Look up DiscoveRx β-arrestin2 Ymax (%) of CCc1nc2c(C)cc(C)nc2n1Cc1ccc(-c2cc(-c3cn(Cc4ccccc4)nn3)ccc2-c2nnn[nH]2)cc1 and report it.
Reply: 22.4%

Ask: Look up DiscoveRx β-arrestin2 Ymax (%) of CCc1nc2c(C)cc(C)nc2n1Cc1ccc(-c2cc(C3CCCCCC3)ccc2-c2nn[nH]n2)cc1 and report it.
Reply: 17.6%

Ask: Look up DiscoveRx β-arrestin2 Ymax (%) of CCCCC(=O)N(Cc1ccc(-c2cc(-c3cnn(C)c3)ccc2-c2nn[nH]n2)cc1)C1(C(=O)O)CCCCC1 and report it.
Reply: 29.6%

The record that follows has no DiscoveRx β-arrestin2 Ymax (%) shown yet.
Ask: Look up DiscoveRx β-arrestin2 Ymax (%) of CCCCC1=NC2(CCCC2)C(=O)N1Cc1ccc(-c2cc(-c3ccccc3CO)ccc2-c2nn[nH]n2)cc1 and report it.
Reply: 14.5%

----------
- ASSAY_SYSTEM: hAT1R (Homo sapiens, UniProt P30556)
- EXPERIMENTAL_DETAILS: BRET Gq biosensor assay, agonist response, HEK293 cells
- Format: cell-based
- SETTINGS: section of the 42nd table directly before the BRET P63 section
Answer each item with its documented pEC50.
Numbers only, as −log10 of the molar value.

# annotated cases, reported pEC50 shown
Ask: Look up pEC50 of CCCCc1ncc(C(=O)NCc2cnn(C)c2)n1Cc1ccc(-c2cc(-c3ccccc3)ccc2-c2nn[nH]n2)cc1 and report it.
Reply: 7.17

Ask: Look up pEC50 of CCOc1nc2cccc(C(=O)O)c2n1Cc1ccc(-c2cc(Oc3cnccc3C)ccc2-c2nn[nH]n2)cc1 and report it.
Reply: 7.25

Ask: Look up pEC50 of CCCCc1ncc(C(=O)NC2CCCCCC2)n1Cc1ccc(-c2cc(-c3ccccc3)ccc2-c2nn[nH]n2)cc1 and report it.
Reply: 7.47

Ask: Look up pEC50 of CCOc1nc2cccc(C(=O)O)c2n1Cc1ccc(-c2cc(Oc3cccc(OC)c3)ccc2-c2nn[nH]n2)cc1 and report it.
Reply: 6.98

The record that follows has no pEC50 shown yet.
Ask: Look up pEC50 of CCCCc1ncc(C(=O)NCCO)n1Cc1ccc(-c2cc(-c3ccccc3)ccc2C(=O)O)cc1 and report it.
Reply: 6.34

----------
- ASSAY_SYSTEM: AGTR1 (Homo sapiens)
- Construct: host or cells: Pathunter CHO-K1 AGTR1 β-arrestin cell line (CHO-K1)
- Sequence (P30556 1-359): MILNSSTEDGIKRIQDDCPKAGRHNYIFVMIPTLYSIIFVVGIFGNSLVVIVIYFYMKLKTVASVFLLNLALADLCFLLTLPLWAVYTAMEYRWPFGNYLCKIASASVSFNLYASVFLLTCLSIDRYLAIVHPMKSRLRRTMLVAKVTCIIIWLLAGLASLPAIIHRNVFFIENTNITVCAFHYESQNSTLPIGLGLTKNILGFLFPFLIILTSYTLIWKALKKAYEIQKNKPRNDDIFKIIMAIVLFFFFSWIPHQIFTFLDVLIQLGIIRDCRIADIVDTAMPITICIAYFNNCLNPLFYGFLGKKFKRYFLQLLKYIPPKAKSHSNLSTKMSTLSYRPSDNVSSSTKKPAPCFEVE
- EXPERIMENTAL_DETAILS: DiscoveRx IP1 accumulation assay (HTRF), agonist mode, Pathunter CHO-K1 AGTR1 β-arrestin cell line
- Assay type: cell-based
- SETTINGS: read-out: IP-1 EC50
Answer each item with its documented pEC50.
Answers are plain numbers, as −log10 of the molar value.

# annotated cases, reported pEC50 shown
Ask: Report value: pEC50, system: AGTR1 (Homo sapiens), compound: CCc1nc2c(C)cc(C)nc2n1Cc1ccc(-c2cc(-c3cncc(C)c3)ccc2-c2nn[nH]n2)cc1
Reply: 7.08

Ask: Report value: pEC50, system: AGTR1 (Homo sapiens), compound: CCCCC1=NC2(CCOC2)C(=O)N1Cc1ccc(-c2cc(-c3cc(C)ccn3)ccc2-c2nnn[nH]2)cc1 (single isomer, unassigned)
Reply: 7.39

Ask: Report value: pEC50, system: AGTR1 (Homo sapiens), compound: CCc1nc2c(C)cc(C)nc2n1Cc1ccc(-c2cc(Oc3cncnc3)ccc2-c2nnn[nH]2)cc1
Reply: 7.37

The record that follows has no pEC50 shown yet.
Ask: Report value: pEC50, system: AGTR1 (Homo sapiens), compound: CCCCC1=NC2(CCOCC2)C(=O)N1Cc1ccc(-c2cc(-c3ccccc3)ccc2-c2nnn[nH]2)cc1
Reply: 6.72
